Values were extracted from PubChem BioAssay AID1159580.

- measurement protocol: chemical genetic growth profiling, strain panel (AID 1159580);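 further: tested at 20 µM; growth read once vehicle control cultures reached saturation at 30 °C; 1 = growth at the plate median or of vehicle wells; lower values mean less growth of the strain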
- settings: S. cerevisiae deletion strains, growth OD, locus YLR342W, strain FKS1, hits give low values
Among all 5,500 compounds or so, about 2,000 (36%) were called active. Roughly 18% stayed inconclusive and do not appear here. The list shows a part of the results.
quantity measured: normalized growth
Give the figure only, with no unit attached.

>  <molecule>
O=C(Oc1cc(OC(=O)c2ccccc2)c2c(c1)O[C@H](c1ccc(OC(=O)c3ccccc3)c(OC(=O)c3ccccc3)c1)[C@@H](OC(=O)c1ccccc1)C2)c1ccccc1

>  <normalized growth>
0.989

$$$$
>  <molecule>
CNCCC(Oc1ccc(C(F)(F)F)cc1)c1ccccc1 (configuration not stated)

>  <normalized growth>
0.988

$$$$
>  <molecule>
O=C(/C=C/c1ccc(O)c(O)c1)OC(Cc1ccc(O)c(O)c1)C(=O)O (configuration not stated)

>  <normalized growth>
1.02

$$$$
>  <molecule>
CN(C)CCN(Cc1cccs1)c1ccccn1

>  <normalized growth>
1.01

$$$$
>  <molecule>
CCN1CCCC(OC(=O)C(c2ccccc2)c2ccccc2)C1 (configuration not stated)

>  <normalized growth>
0.985

$$$$

Incoming: Input c1ccc2c(c1)CCCC2C1=NCCN1 (configuration not stated) , output reported normalized growth.
Outgoing: 1.02

Incoming: For the molecule `CN(C)CCN(Cc1ccccc1)c1ccccn1` , report normalized growth.
Outgoing: 1.02

====

- measurement protocol: chemical genetic growth profiling, strain panel (AID 1159580)
- settings: S. cerevisiae deletion strains, growth OD, locus YMR205C, strain PFK2, hits give low values
Hit rate of the full screen: of about 5,500 compounds, about 2,000 (36%) were called active. Another 18% or so got no clear call; they are omitted. The list shows a part of the results.
This listing pairs molecules with measured normalized growth.
# answer = number (no unit)

Consider the reported normalized growth for these molecules:
>  <smiles data>
O=C(Oc1cc(OC(=O)c2ccccc2)c2c(c1)O[C@H](c1ccc(OC(=O)c3ccccc3)c(OC(=O)c3ccccc3)c1)[C@@H](OC(=O)c1ccccc1)C2)c1ccccc1

>  <normalized growth>
0.973

$$$$
>  <smiles data>
COc1ccc2c(c1)OC/C(=C/c1ccc(OC)c(OC)c1)C2=O

>  <normalized growth>
0.68

$$$$
>  <smiles data>
COc1ccc(CN(CCN(C)C)c2ccccn2)cc1

>  <normalized growth>
1.02

$$$$
>  <smiles data>
CN1CC(=O)N=C1N

>  <normalized growth>
1.08

$$$$

Let's switch to this molecule now.
Incoming: Return the recorded normalized growth value; entry: `Cc1ccc(C(=O)Nc2ccc(S(=O)(=O)O)c3cc(S(=O)(=O)O)cc(S(=O)(=O)O)c23)cc1NC(=O)c1cccc(NC(=O)Nc2cccc(C(=O)Nc3cc(C(=O)Nc4ccc(S(=O)(=O)O)c5cc(S(=O)(=O)O)cc(S(=O)(=O)O)c45)ccc3C)c2)c1`
Outgoing: 1.06

====

- measurement protocol: chemical genetic growth profiling, strain panel (AID 1159580)
- settings: S. cerevisiae deletion strains, growth OD, locus YOR265W, strain rbl2, hits give low values
Out of some 5,500 compounds screened, about 2,000 (36%) were called active. Not shown: some 18% with an inconclusive outcome. Some of the results follow.
Reported normalized growth values are given for each entry in this list.

Example entries begin here.
>  <molecule>
CN1C2CCC1CC(OC(c1ccccc1)c1ccccc1N)C2 (configuration not stated)

>  <normalized growth>
1.01 (inactive)

$$$$
>  <molecule>
CNCCC(Oc1ccc(C(F)(F)F)cc1)c1ccccc1 (configuration not stated)

>  <normalized growth>
0.995 (inactive)

$$$$
>  <molecule>
C[C@]12CCC(=O)C=C1C=CC1C2CC[C@@]2(C)C1CC[C@@]21CCC(=O)O1 (some centres not stated)

>  <normalized growth>
0.983 (inactive)

$$$$

Incoming: Identify the reported normalized growth for the following entry. `O=C(O)c1cc2cc(F)ccc2[nH]1`
Outgoing: 0.98 (inactive)

Incoming: Output normalized growth of CC[C@@H](C(=O)C(C)[C@@H](O)[C@H](C)CCc1ccc(C)c(O)c1C(=O)O)C1OC(CC)(C2CC[C@](O)(CC)[C@H](C)O2)C[C@@H]1C (some centres not stated)
Outgoing: 1.05 (inactive)

Incoming: Give normalized growth for CC(=O)S[C@@H]1CC2=CC(=O)CC[C@]2(C)[C@H]2CC[C@@]3(C)[C@@H](CC[C@@]34CCC(=O)O4)C12 (some centres not stated)
Outgoing: 1.01 (inactive)

Incoming: Return the recorded normalized growth value; entry: `CN1CC(=O)N=C1N`
Outgoing: 1.01 (inactive)

====

- measurement protocol: chemical genetic growth profiling, strain panel (AID 1159580)
- settings: S. cerevisiae deletion strains, growth OD, locus YER155C, strain BEM2, hits give low values
In all, about 5,500 compounds went through this assay and about 2,000 (36%) were called active. Inconclusive results (about 18%) are left out. This is one part of the list.
quantity measured: normalized growth

>  <compound>
CC1(C)CCC[C@@]2(C)C1[C@@H](O)C[C@]1(C)C2CC[C@@H]2[C@@]3(C)CC[C@H](C(C)(C)O)[C@@H]3CC[C@@]21C (stereo not given in full)

>  <normalized growth>
1.01 (inactive)

$$$$
>  <compound>
CN1CCC(OC(c2ccccc2)c2ccccc2)CC1

>  <normalized growth>
0.988 (inactive)

$$$$
>  <compound>
COc1ccc(C(c2ccc(OC)cc2)C(Cl)(Cl)Cl)cc1

>  <normalized growth>
0.989 (inactive)

$$$$

Incoming: In one line, give reported normalized growth of the entry CC1COc2c(N3CCN(C)CC3)c(F)cc3c(=O)c(C(=O)O)cn1c23 (stereo not given) .
Outgoing: 1.01 (inactive)

Incoming: For the compound Clc1ccc(C(OCCN2CCCCC2)c2ccccc2)cc1 (stereo not given) , give its reported normalized growth.
Outgoing: 1 (inactive)

Incoming: // Input: COc1ccc(OC)c(C(O)CNC(=O)CN)c1 (stereo not given) . Output its normalized growth only.
Outgoing: 1 (inactive)

Incoming: Return value of normalized growth for input C=C1CCC2[C@](C)(CO)[C@H](O)CC[C@@]2(C)[C@@H]1C/C=C1/C(=O)OC[C@H]1O (stereo not given in full) , no commentary.
Outgoing: 1.02 (inactive)

Incoming: Give the reported normalized growth for this compound. COc1ccc(C(CN(C)C)C2(O)CCCCC2)cc1 (stereo not given)
Outgoing: 0.987 (inactive)

Incoming: Hello, please tell me recorded normalized growth for this one: `O=C1C(Cl)=C(Cl)C(=O)C(Cl)=C1Cl`
Outgoing: 0.509 (active)

Incoming: # return recorded normalized growth for entry `Clc1ccc(C(c2ccc(Cl)cc2)C(Cl)(Cl)Cl)cc1`
Outgoing: 1.02 (inactive)

====

# maps each entry to its normalized growth
- measurement protocol: chemical genetic growth profiling, strain panel (AID 1159580);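 further: tested at 20 µM; growth read once vehicle control cultures reached saturation at 30 °C; 1 = growth at the plate median or of vehicle wells; lower values mean less growth of the strain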
- settings: S. cerevisiae deletion strains, growth OD, locus YAL026C, strain drs2, hits give low values
In all, about 5,500 compounds went through this assay and about 2,000 (36%) were called active. Another 18% or so got no clear call; they are omitted. The list shows a part of the results.
The reply should be a number, written without any unit.

>  <compound>
OCC(O)CN1CCN(c2ccccc2)CC1 (stereo unspecified)

>  <assay result>
0.982

$$$$

Incoming: Please give the documented normalized growth of `CCOC(=O)n1ccn(C)c1=S`
Outgoing: 0.996

====

- measurement protocol: chemical genetic growth profiling, strain panel (AID 1159580);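 further: tested at 20 µM; growth read once vehicle control cultures reached saturation at 30 °C; 1 = growth at the plate median or of vehicle wells; lower values mean less growth of the strain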
- settings: S. cerevisiae deletion strains, growth OD, locus YKR001C, strain vps1, hits give low values
The campaign covered roughly 5,500 compounds. About 2,000 (36%) were called active. Another 18% or so got no clear call; they are omitted. The list shows a part of the results.
normalized growth reference
Enter a number only.

Incoming: Identify measured normalized growth associated with `O=C1NCC2(CCN(CCc3ccccc3)CC2)O1`
Outgoing: 0.999

Incoming: Please report normalized growth for the following compound: CN1C2CCC1CC(OC(c1ccccc1)c1ccccc1N)C2 (stereo not drawn)
Outgoing: 1.02

Incoming: Check the records and state normalized growth for CN1C2CCC1CC(OC(c1ccccc1)c1ccccc1)C2 (stereo not drawn)
Outgoing: 0.926

====

- measurement protocol: chemical genetic growth profiling, strain panel (AID 1159580);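 further: tested at 20 µM; growth read once vehicle control cultures reached saturation at 30 °C; 1 = growth at the plate median or of vehicle wells; lower values mean less growth of the strain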
- settings: S. cerevisiae deletion strains, growth OD, locus YLR330W, strain CHS5, hits give low values
Out of some 5,500 compounds screened, about 2,000 (36%) were called active. Inconclusive results (about 18%) are left out. This is one part of the list.
quantity measured: normalized growth
Format: numeric value only, no unit, no commentary.

Worked cases, answers included:
>  <compound>
CCC1(O)CC(OC2CC(N(C)C)C(OC3CC(O)C(OC4CCC(=O)C(C)O4)C(C)O3)C(C)O2)c2c(cc3c(c2O)C(=O)c2c(O)cccc2C3=O)C1C(=O)OC (stereo not drawn)

>  <normalized growth>
1

$$$$
>  <compound>
COc1ccc(CN(CCN(C)C)c2ccccn2)cc1

>  <normalized growth>
0.98

$$$$
>  <compound>
CN1CC(=O)N=C1N

>  <normalized growth>
1.01

$$$$
>  <compound>
C=C[C@@](C)(O)CCC1C(=C)C[C@H](OC(C)=O)C2C(C)(C)CCCC12C (stereo partly drawn)

>  <normalized growth>
1

$$$$
>  <compound>
CCn1cc(C(=O)O)c(=O)c2cc(F)c(N3CCNCC3)nc21

>  <normalized growth>
1.01

$$$$

Incoming: Query normalized growth for Oc1cc(O)c2c(c1)OC(c1cc(O)c(O)c(O)c1)C(O)C2c1c(O)cc(O)c2c1OC(c1cc(O)c(O)c(O)c1)C(O)C2c1c(O)cc(O)c2c1OC(c1cc(O)c(O)c(O)c1)C(O)C2 (stereo not drawn)
Outgoing: 1

Incoming: Give the reported value of normalized growth for this record: C=C[C@@](C)(O)CCC1C(=C)C[C@H](O)C2C(C)(C)CCCC12C (stereo partly drawn)
Outgoing: 1.01

Incoming: State, in one line, measured normalized growth of `CN(C)CCN(Cc1cccs1)c1ccccn1`
Outgoing: 1

Incoming: Return value of normalized growth for input `Oc1ccc2c(c1)O[C@H](c1ccc(O)c(O)c1)[C@@H](O)C2` , no commentary.
Outgoing: 1.03
